Where do these numbers come from? They come from patent US20220332795A1.

Field: apical domain:HSA. Provide a value for each of the binders that follow.
# TARGET_OR_SYSTEM: T1, CD71 apical domain (UniProt P02786 189-383, limits assumed)
# T1 construct: domain: Apical domain
# T1 sequence (P02786 189-383 limits assumed): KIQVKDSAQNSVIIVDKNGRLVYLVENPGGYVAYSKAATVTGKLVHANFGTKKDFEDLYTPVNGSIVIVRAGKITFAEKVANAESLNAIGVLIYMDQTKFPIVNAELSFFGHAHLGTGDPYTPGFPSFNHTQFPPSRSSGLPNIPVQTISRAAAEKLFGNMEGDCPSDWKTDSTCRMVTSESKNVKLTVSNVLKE
# PROTOCOL_DETAILS: solution ELISA, signal ratio to HSA

Exercise: Suppose we examine the binder SEQ ID NO 187 (designed binder, FN3 domain) MLPAPKNLVVSRVTEDSARLSWTAPDAAFDSFFIGYLEPQPPGEAISLLVPDSERSYDLTGLKPGTEYNVTIQGVKGGFPSMPLKFTT ; what apical domain:HSA value has been reported?
Key: 1.1

Exercise: Suppose we examine the binder SEQ ID NO 188 (designed binder, FN3 domain) MLPAPKNLVVSRVTEDSARLSWTAPDAAFDSFYIAYAEPRPDGEAIGLGVPGSERSYDLTGLKPGTEYSVLIHGVKGGLLSSPLDASFTT ; what apical domain:HSA value has been reported?
Key: 195

Exercise: Suppose we examine the binder SEQ ID NO 180 (designed binder, FN3 domain) MLPAPKNLVVSRVTEDSARLSWTAPDAAFDSFYIAYAEPRPDGEAIALLVPGSERSYDLTGLKPGTEYSVLIHGVKGGLLSSPLVAQFTT ; what apical domain:HSA value has been reported?
Key: 366
